test: Pharmacokinetic study after intravenous administration in control and hyperuricemic rats (plasma, urine, kidney); conditions: rat, plasma, intravenous, Plasma concentration, control rats, 2 min after iv metformin 30 mg/kg or cephalexin 10 mg/kg, individual rat
recorded endpoint: concentration at 2 min (µM)
Number only, in µM; omit the unit.

// CN(C)C(=N)N=C(N)N : concentration at 2 min value = 385

====

assay: Pharmacokinetic study after intravenous administration in control and hyperuricemic rats (plasma, urine, kidney); details: rat, plasma, intravenous, Plasma concentration, hyperuricemic rats, 30 min after iv metformin 30 mg/kg or cephalexin 10 mg/kg (creatinine endogenous), individual rat
recorded endpoint: concentration at 30 min (µM)
Quick note: give the figure in µM, leave out the unit.

Notebook: CN1CC(=O)NC1=N [Creatinine, creatinine] , concentration at 30 min read as 25.9

In plain terms, CN(C)C(=N)N=C(N)N [Metformin, metformin] has a documented concentration at 30 min of 30

====

test: Pharmacokinetic study after intravenous administration in control and hyperuricemic rats (plasma, urine, kidney); settings: rat, plasma, intravenous, Plasma concentration, control rats, 30 min after iv metformin 30 mg/kg or cephalexin 10 mg/kg (creatinine endogenous), individual rat
Please provide measured concentration at 30 min for the entries that follow.
The response must be a number in µM with no trailing unit.

Briefly, concentration at 30 min measured for CN(C)C(=N)N=C(N)N : 37

// concentration at 30 min value for CN1CC(=O)NC1=N : 19.5

====

test: Pharmacokinetic study after intravenous administration in control and hyperuricemic rats (plasma, urine, kidney); conditions: rat, urine, intravenous, 30 mg/kg, Urinary recovery (cumulative), control rats, 60 min after iv metformin 30 mg/kg, individual rat
recorded endpoint: dose excreted at 60 min (%)
Write the value in % as a bare number.

// sample CN(C)C(=N)N=C(N)N [Metformin, metformin] , its dose excreted at 60 min was 57.8

====

assay: Pharmacokinetic study after intravenous administration in control and hyperuricemic rats (plasma, urine, kidney); conditions: rat, plasma and urine, iv, CLR, hyperuricemic rats; iv metformin 30 mg/kg or cephalexin 10 mg/kg, creatinine endogenous; mean n=3
recorded endpoint: CL renal (mL/min/kg)
Numbers only here, please. The scale is mL/min/kg.

The measured CL renal associated with CN(C)C(=N)N=C(N)N [Metformin, metformin] reads 18.3

====

assay: Pharmacokinetic study after intravenous administration in control and hyperuricemic rats (plasma, urine, kidney); conditions: rat, plasma, intravenous, Plasma concentration, hyperuricemic rats, 2 min after iv metformin 30 mg/kg or cephalexin 10 mg/kg, individual rat
recorded endpoint: concentration at 2 min (µM)
Reply with just the number (in µM).

Consider CN(C)C(=N)N=C(N)N . Its measured concentration at 2 min is 267

====

test: Pharmacokinetic study after intravenous administration in control and hyperuricemic rats (plasma, urine, kidney); conditions: rat, urine, intravenous, 30 mg/kg, Urinary recovery (cumulative), control rats, 120 min after iv metformin 30 mg/kg, mean n=3
recorded endpoint: dose excreted at 120 min (%)
Write the value in % as a bare number.

# dose excreted at 120 min (compound: CN(C)C(=N)N=C(N)N ) is 65.7

====

assay: Pharmacokinetic study after intravenous administration in control and hyperuricemic rats (plasma, urine, kidney); settings: rat, plasma, intravenous, Plasma concentration, control rats, 60 min after iv metformin 30 mg/kg or cephalexin 10 mg/kg (creatinine endogenous), mean n=3
Hi there, I'd appreciate the recorded concentration at 60 min for every entry that follows.
Form entry: value (µM) — number only.

The reported concentration at 60 min of the molecule CN1CC(=O)NC1=N was 20.3

Form: molecule = CN(C)C(=N)N=C(N)N ; concentration at 60 min = 13.4

====

test: Pharmacokinetic study after intravenous administration in control and hyperuricemic rats (plasma, urine, kidney); details: rat, plasma, intravenous, Plasma concentration, control rats, 0 min after iv metformin 30 mg/kg or cephalexin 10 mg/kg, individual rat
recorded endpoint: concentration at 0 min

Data point: CN(C)C(=N)N=C(N)N ; concentration at 0 min = 1270 µM

====

test: Pharmacokinetic study after intravenous administration in control and hyperuricemic rats (plasma, urine, kidney); conditions: rat, urine, intravenous, 30 mg/kg, Urinary recovery (cumulative), control rats, 20 min after iv metformin 30 mg/kg, mean n=3
recorded endpoint: dose excreted at 20 min (%)
A number alone suffices; assume %.

Memo: CN(C)C(=N)N=C(N)N [Metformin, metformin] , reported dose excreted at 20 min: 31.3

====

experiment: Pharmacokinetic study after intravenous administration in control and hyperuricemic rats (plasma, urine, kidney); details: rat, plasma, intravenous, Plasma concentration, hyperuricemic rats, 0 min after iv metformin 30 mg/kg or cephalexin 10 mg/kg, individual rat
recorded endpoint: concentration at 0 min

What the record says about CN(C)C(=N)N=C(N)N : concentration at 0 min is 676 µM

====

assay: Pharmacokinetic study after intravenous administration in control and hyperuricemic rats (plasma, urine, kidney); settings: rat, urine, intravenous, 30 mg/kg, Urinary recovery (cumulative), hyperuricemic rats, 240 min after iv metformin 30 mg/kg, mean n=3
recorded endpoint: dose excreted at 240 min (%)
Numeric only. Scale: %

Lab note: CN(C)C(=N)N=C(N)N [Metformin, metformin] gave dose excreted at 240 min of 63.3

====

experiment: Pharmacokinetic study after intravenous administration in control and hyperuricemic rats (plasma, urine, kidney); details: rat, plasma, iv, 30 mg/kg, AUC0-4, hyperuricemic rats; iv metformin 30 mg/kg; individual rat
recorded endpoint: AUC(0-t) (µM·h)
Record the value in µM·h, omitting the unit from your answer.

Entry CN(C)C(=N)N=C(N)N — recorded AUC(0-t) = 107

====

test: Pharmacokinetic study after intravenous administration in control and hyperuricemic rats (plasma, urine, kidney); conditions: rat, plasma, intravenous, Plasma concentration, control rats, 2 min after iv metformin 30 mg/kg or cephalexin 10 mg/kg, mean n=3
recorded endpoint: concentration at 2 min (µM)
Give the number; µM is assumed, so skip it.

Reported concentration at 2 min ( CN(C)C(=N)N=C(N)N ) = 328

====

assay: Pharmacokinetic study after intravenous administration in control and hyperuricemic rats (plasma, urine, kidney); conditions: rat, urine, intravenous, 30 mg/kg, Urinary recovery (cumulative), hyperuricemic rats, 10 min after iv metformin 30 mg/kg, mean n=3
recorded endpoint: dose excreted at 10 min
Give the value; after it, write the unit.

The compound listed as CN(C)C(=N)N=C(N)N has a reported dose excreted at 10 min of 14.6%

====

experiment: Pharmacokinetic study after intravenous administration in control and hyperuricemic rats (plasma, urine, kidney); conditions: rat, urine, intravenous, 30 mg/kg, Urinary recovery (cumulative), hyperuricemic rats, 20 min after iv metformin 30 mg/kg, individual rat
recorded endpoint: dose excreted at 20 min (%)
Kindly provide the numeric value in % only, without the unit symbol.

compound CN(C)C(=N)N=C(N)N , dose excreted at 20 min observed: 26.9

====

assay: Pharmacokinetic study after intravenous administration in control and hyperuricemic rats (plasma, urine, kidney); details: rat, urine, intravenous, 30 mg/kg, Urinary recovery (cumulative), hyperuricemic rats, 60 min after iv metformin 30 mg/kg, individual rat
recorded endpoint: dose excreted at 60 min (%)
Number only, in %; omit the unit.

dose excreted at 60 min recorded for this compound, CN(C)C(=N)N=C(N)N , is 46

====

assay: Pharmacokinetic study after intravenous administration in control and hyperuricemic rats (plasma, urine, kidney); settings: rat, plasma, intravenous, AUC0-4, creatinine, control rats; individual rats and mean
recorded endpoint: AUC(0-t) (µM·h)
Unit µM·h implied. Number only.

Per the records, this compound ( CN1CC(=O)NC1=N [Creatinine, creatinine] ) has AUC(0-t) equal to 87.6

====

assay: Pharmacokinetic study after intravenous administration in control and hyperuricemic rats (plasma, urine, kidney); conditions: rat, plasma, intravenous, Plasma concentration, control rats, 0 min after iv metformin 30 mg/kg or cephalexin 10 mg/kg, mean n=3
recorded endpoint: concentration at 0 min (µM)
Numbers only; they are read as µM.

What the record says about CN(C)C(=N)N=C(N)N [Metformin, metformin] : concentration at 0 min is 1070

====

assay: Pharmacokinetic study after intravenous administration in control and hyperuricemic rats (plasma, urine, kidney); details: rat, plasma, iv, 30 mg/kg, AUCinf, hyperuricemic rats; iv metformin 30 mg/kg; individual rat
recorded endpoint: AUC(0-inf)

Form: compound = CN(C)C(=N)N=C(N)N [Metformin, metformin] ; AUC(0-inf) = 109 µM·h

====

assay: Pharmacokinetic study after intravenous administration in control and hyperuricemic rats (plasma, urine, kidney); settings: rat, urine, intravenous, 30 mg/kg, Urinary recovery (cumulative), hyperuricemic rats, 20 min after iv metformin 30 mg/kg, mean n=3
recorded endpoint: dose excreted at 20 min (%)
Report only the number, with the unit % understood.

Data point: CN(C)C(=N)N=C(N)N [Metformin, metformin] ; dose excreted at 20 min = 24.3

====

test: Pharmacokinetic study after intravenous administration in control and hyperuricemic rats (plasma, urine, kidney); conditions: rat, plasma, iv, AUCinf, control rats; iv metformin 30 mg/kg or cephalexin 10 mg/kg; mean n=3;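 note: Pentobarbital-anesthetized rats with cannulated bladder, jugular plasma, timed urine and saline kidney homogenate assayed by HPLC or LC-MS/MS, Kp as kidney over plasma level at 4 h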
recorded endpoint: AUC(0-inf) (µM·h)
Quick note: give the figure in µM·h, leave out the unit.

Entry CN(C)C(=N)N=C(N)N ; AUC(0-inf) = 94
